Origin of values: ChEMBL document CHEMBL1795320

# System: Streptococcus pneumoniae
# method: Antibacterial activity against erythromycin-susceptible Streptococcus pneumoniae ATCC 49619 by broth microdilution method
# Assay type: functional
measurement name: MIC (µg/mL)
Field format: number, assumed µg/mL, no unit text.

*Q* Provide one value: measured MIC of CCCc1nc2cc(C(=O)NNC(=O)O[C@H]3[C@H](C)O[C@@H](O[C@H]4[C@H](C)[C@@H](O[C@@H]5O[C@H](C)C[C@H](N(C)C)[C@H]5O)[C@](C)(OC)C[C@@H](C)C(=O)[C@H](C)[C@@H](O)[C@](C)(O)[C@@H](CC)OC(=O)[C@@H]4C)C[C@@]3(C)OC)ccc2[nH]1
*A* 0.12

*Q* Provide one value: measured MIC of CC[C@H]1OC(=O)[C@H](C)[C@@H](O[C@H]2C[C@@](C)(OC)[C@@H](OC(=O)NNC(=O)c3ccc4[nH]c(-c5ccc(Cl)cc5)nc4c3)[C@H](C)O2)[C@H](C)[C@@H](O[C@@H]2O[C@H](C)C[C@H](N(C)C)[C@H]2O)[C@](C)(OC)C[C@@H](C)C(=O)[C@H](C)[C@@H](O)[C@]1(C)O
*A* 0.03

*Q* Provide one value: measured MIC of CC[C@H]1OC(=O)[C@H](C)[C@@H](O[C@H]2C[C@@](C)(OC)[C@@H](OC(=O)NNC(=O)c3ccc4[nH]c(-c5ccc(C(F)(F)F)cc5)nc4c3)[C@H](C)O2)[C@H](C)[C@@H](O[C@@H]2O[C@H](C)C[C@H](N(C)C)[C@H]2O)[C@](C)(OC)C[C@@H](C)C(=O)[C@H](C)[C@@H](O)[C@]1(C)O
*A* 0.25

*Q* Provide one value: measured MIC of CC[C@H]1OC(=O)[C@H](C)[C@@H](O[C@H]2C[C@@](C)(OC)[C@@H](O)[C@H](C)O2)[C@H](C)[C@@H](O[C@@H]2O[C@H](C)C[C@H](N(C)C)[C@H]2O)[C@](C)(O)C[C@@H](C)C(=O)[C@H](C)[C@@H](O)[C@]1(C)O
*A* 0.12

*Q* Provide one value: measured MIC of CC[C@H]1OC(=O)[C@H](C)[C@@H](O[C@H]2C[C@@](C)(OC)[C@@H](O)[C@H](C)O2)[C@H](C)[C@@H](O[C@@H]2O[C@H](C)C[C@H](N(C)C)[C@H]2O)[C@](C)(O)C[C@@H](C)CN(C)[C@H](C)[C@@H](O)[C@]1(C)O
*A* 0.12
